Test system: Epidermal growth factor receptor (Homo sapiens), P00533 [T790M]
Sequence (P00533 whole entry T790M): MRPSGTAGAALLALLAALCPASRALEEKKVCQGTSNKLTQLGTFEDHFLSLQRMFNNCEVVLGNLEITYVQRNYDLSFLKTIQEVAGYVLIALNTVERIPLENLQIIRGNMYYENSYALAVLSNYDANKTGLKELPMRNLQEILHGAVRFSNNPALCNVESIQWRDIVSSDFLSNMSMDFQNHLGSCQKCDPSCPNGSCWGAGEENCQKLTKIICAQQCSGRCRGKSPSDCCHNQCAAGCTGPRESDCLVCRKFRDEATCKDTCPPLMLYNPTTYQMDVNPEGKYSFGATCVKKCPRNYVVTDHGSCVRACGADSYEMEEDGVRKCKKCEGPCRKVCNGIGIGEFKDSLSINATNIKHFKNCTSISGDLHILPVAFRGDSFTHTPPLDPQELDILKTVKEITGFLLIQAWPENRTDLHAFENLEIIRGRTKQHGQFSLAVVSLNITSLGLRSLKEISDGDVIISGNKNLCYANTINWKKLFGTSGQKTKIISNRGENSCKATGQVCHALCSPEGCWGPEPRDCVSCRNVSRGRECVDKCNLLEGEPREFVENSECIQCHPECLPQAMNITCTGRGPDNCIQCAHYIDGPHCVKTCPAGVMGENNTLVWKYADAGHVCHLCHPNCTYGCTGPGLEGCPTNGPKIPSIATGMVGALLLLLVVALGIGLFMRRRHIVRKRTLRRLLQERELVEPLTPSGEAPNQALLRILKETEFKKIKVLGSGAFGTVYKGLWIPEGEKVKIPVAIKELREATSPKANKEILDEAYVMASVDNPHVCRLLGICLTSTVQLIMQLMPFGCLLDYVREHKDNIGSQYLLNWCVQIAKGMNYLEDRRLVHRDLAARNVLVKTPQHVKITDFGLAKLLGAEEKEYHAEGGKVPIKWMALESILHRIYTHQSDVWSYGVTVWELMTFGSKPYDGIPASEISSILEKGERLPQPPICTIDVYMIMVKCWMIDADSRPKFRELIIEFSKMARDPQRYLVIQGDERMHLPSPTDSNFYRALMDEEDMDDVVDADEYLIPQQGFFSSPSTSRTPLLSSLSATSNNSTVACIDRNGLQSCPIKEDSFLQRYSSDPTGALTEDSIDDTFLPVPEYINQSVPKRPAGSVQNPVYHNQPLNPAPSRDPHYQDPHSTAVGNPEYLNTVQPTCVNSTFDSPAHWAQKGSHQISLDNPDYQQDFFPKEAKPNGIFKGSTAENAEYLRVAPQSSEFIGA
Recorded Conditions: at 1 µM
Below is a list of entries, each paired with its recorded inhibition value.
API: value field is a number in %; no unit string.

Some solved entries appear below for comparison.
>>> quantitative_readout("Nc1nccc(-c2c(-c3ccc(F)cc3)ncn2CCCN2CCOCC2)n1")
3.66
>>> quantitative_readout("Cc1ccc(C(=O)NC2CC2)cc1-c1ccc2[nH]ncc2c1")
-3.14
>>> quantitative_readout("CCS(=O)(=O)c1ccc(OC)c(Nc2ncc(-c3cccc(OC)c3)o2)c1")
-0.32

Q. Provide only the value of recorded inhibition for `c1ccc(Nc2ncc(-c3ccccc3)o2)cc1`
A. 3.42

Q. Provide only the value of recorded inhibition for `COc1cc(Nc2nccc(-c3cnn4ncccc34)n2)cc(OC)c1`
A. -0.64

Q. Provide only the value of recorded inhibition for `NS(=O)(=O)c1cccc(-c2cc3ccncc3cc2OCc2ccccc2)c1`
A. 1.71

* * *

Tgt: Macrophage colony-stimulating factor 1 receptor (Homo sapiens) (UniProt P07333)
Sequence (P07333 whole entry): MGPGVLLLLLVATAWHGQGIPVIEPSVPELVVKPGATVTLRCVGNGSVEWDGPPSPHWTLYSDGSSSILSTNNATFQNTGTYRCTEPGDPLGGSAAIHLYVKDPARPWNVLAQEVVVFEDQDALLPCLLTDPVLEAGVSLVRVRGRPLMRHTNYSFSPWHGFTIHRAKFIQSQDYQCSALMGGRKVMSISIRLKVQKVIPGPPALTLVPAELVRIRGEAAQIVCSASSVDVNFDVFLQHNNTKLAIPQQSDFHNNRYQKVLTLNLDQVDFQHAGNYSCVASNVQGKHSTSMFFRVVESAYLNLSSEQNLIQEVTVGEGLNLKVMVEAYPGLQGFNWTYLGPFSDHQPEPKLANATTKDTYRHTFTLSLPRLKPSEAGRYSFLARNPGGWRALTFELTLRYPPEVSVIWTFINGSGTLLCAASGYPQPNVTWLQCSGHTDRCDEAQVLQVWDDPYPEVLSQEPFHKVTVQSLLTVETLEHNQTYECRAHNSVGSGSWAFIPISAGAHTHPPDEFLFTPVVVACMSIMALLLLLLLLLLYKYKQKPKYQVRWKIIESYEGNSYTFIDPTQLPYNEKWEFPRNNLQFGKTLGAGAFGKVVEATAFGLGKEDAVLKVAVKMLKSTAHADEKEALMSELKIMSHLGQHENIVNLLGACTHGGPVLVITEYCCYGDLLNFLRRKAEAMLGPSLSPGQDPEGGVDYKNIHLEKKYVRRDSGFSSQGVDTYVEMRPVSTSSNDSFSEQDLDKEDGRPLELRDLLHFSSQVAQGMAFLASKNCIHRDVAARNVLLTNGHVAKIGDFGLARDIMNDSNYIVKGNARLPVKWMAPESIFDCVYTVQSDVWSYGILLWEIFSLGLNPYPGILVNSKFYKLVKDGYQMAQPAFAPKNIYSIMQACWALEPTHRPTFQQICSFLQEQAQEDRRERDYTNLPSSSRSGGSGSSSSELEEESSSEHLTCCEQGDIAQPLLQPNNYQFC
Recorded Conditions: at 0.1 µM
Measurement Label: inhibition (%)
API: value field is a number in %; no unit string.

>>> quantitative_readout("COc1cccc(-n2ncc3c(N/N=C/c4ccc(C)cc4)ncnc32)c1")
4.53

Q. Provide only the value of recorded inhibition for `Cc1ccc2c(-c3ccnc(Nc4ccc5c(c4)OCCO5)n3)c(-c3ccc(C(F)(F)F)cc3)nn2n1`
A. -1.16

* * *

Below is a list of entries, each paired with its recorded inhibition value.
Tgt: Serine/threonine-protein kinase PAK 1 (Homo sapiens)
Recorded Conditions: at 1 µM
API: value field is a number in %; no unit string.

Some solved entries appear below for comparison.
>>> quantitative_readout("COC(=O)c1ccc2c(c1)C(=Cc1cc(Br)c(O)c(Br)c1)C(=O)N2")
10.1
>>> quantitative_readout("CN(C)C(=O)O[C@@H]1CN[C@@H](C#Cc2cc3ncnc(Nc4ccc(OCc5cccc(F)c5)c(Cl)c4)c3s2)C1")
2.04

Now take the following compound into account.
Q. Provide only the value of recorded inhibition for `Nc1nccc(-c2c(-c3ccc(F)cc3)ncn2CCCN2CCOCC2)n1`
A. 6.55

* * *

Tgt: Fibroblast growth factor receptor 3 (Homo sapiens) (UniProt P22607)
Sequence (P22607 23-806 limits assumed): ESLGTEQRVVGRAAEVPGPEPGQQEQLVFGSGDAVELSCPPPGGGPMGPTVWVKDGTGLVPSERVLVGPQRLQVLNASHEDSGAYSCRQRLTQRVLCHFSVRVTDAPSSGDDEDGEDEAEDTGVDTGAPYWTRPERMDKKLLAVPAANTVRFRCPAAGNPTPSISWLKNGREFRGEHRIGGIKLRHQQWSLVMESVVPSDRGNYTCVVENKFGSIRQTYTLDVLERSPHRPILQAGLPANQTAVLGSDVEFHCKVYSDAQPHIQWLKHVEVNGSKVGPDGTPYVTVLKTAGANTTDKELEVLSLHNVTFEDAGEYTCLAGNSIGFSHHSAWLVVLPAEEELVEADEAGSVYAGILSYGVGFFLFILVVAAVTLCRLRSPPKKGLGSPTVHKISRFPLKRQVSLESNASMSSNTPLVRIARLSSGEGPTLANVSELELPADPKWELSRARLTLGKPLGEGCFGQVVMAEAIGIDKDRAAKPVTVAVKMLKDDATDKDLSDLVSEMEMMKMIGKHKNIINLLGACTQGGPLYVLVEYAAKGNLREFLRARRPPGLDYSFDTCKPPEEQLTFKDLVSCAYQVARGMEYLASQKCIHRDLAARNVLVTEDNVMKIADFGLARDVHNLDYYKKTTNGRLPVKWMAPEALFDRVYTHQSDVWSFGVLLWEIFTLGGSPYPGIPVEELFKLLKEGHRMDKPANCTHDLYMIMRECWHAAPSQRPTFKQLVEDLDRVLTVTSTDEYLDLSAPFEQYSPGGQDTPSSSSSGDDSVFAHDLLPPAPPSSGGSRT
Recorded Conditions: at 0.1 µM
Measurement Label: inhibition (%)
API: value field is a number in %; no unit string.

Q. Provide only the value of recorded inhibition for `O=C(Nc1ccc(Oc2ccc3[nH]c(NC(=O)c4ccco4)nc3c2)cc1)Nc1cc(C(F)(F)F)ccc1F`
A. -0.92

* * *

Tgt: Casein kinase II subunit alpha (Homo sapiens)
Recorded Conditions: at 1 µM
Below is a list of entries, each paired with its recorded inhibition value.
API: value field is a number in %; no unit string.

Some solved entries appear below for comparison.
>>> quantitative_readout("[O-][S+]1CCN(Cc2ccc(-c3ccc4ncnc(Nc5ccc(OCc6ccccc6)c(Cl)c5)c4c3)o2)CC1")
2.9
>>> quantitative_readout("N#Cc1cccc(Nc2nccc(-c3cnn4ncccc34)n2)c1")
63.9
>>> quantitative_readout("CN1CCN(C(=O)c2ccc(NC(=O)Nc3ccc(N(C)c4ccnc(Nc5ccc(CS(C)(=O)=O)cc5)n4)cc3)cc2)CC1")
2.55
>>> quantitative_readout("COc1cc(Nc2nccc(-c3cnn4ncccc34)n2)cc(OC)c1")
42.7
>>> quantitative_readout("COc1cc2ncnc(Nc3ccc(C)c(O)c3)c2cc1OC")
6.37
>>> quantitative_readout("FC(F)(F)c1ccc(-c2nn3ncccc3c2-c2ccnc(Nc3ccc4c(c3)OCCO4)n2)cc1")
19.8
>>> quantitative_readout("CS(=O)(=O)Nc1cccc(-c2ccc3c(NC(=O)C4CC4)n[nH]c3c2)c1")
-3.51
>>> quantitative_readout("Cc1cc(O)cc(C)c1/C=C/c1cncc(C(=O)N(C)C)c1")
5.95

Q. Provide only the value of recorded inhibition for `Nc1nccc(-c2c(-c3ccc(F)cc3)nn3cc(C(F)(F)F)ccc23)n1`
A. 2.55

Q. Provide only the value of recorded inhibition for `c1ccc(Nc2ncc(-c3ccccc3)o2)cc1`
A. 4.81

* * *

Tgt: CDK3/Cyclin E (Homo sapiens) (UniProt P24864+Q00526)
Sequence (P24864 whole entry, looked up): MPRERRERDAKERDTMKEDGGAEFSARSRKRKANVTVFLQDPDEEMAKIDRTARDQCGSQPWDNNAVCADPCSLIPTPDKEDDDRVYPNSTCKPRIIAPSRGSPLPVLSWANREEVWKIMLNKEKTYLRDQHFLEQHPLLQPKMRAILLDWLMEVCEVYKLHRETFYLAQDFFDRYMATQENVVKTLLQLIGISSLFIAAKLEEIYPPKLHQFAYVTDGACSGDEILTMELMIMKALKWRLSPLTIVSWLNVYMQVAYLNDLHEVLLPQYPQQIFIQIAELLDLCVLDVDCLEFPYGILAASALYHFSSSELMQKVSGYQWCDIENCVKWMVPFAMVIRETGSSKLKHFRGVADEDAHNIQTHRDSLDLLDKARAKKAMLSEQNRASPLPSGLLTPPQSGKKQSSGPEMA
Sequence (Q00526 whole entry, looked up): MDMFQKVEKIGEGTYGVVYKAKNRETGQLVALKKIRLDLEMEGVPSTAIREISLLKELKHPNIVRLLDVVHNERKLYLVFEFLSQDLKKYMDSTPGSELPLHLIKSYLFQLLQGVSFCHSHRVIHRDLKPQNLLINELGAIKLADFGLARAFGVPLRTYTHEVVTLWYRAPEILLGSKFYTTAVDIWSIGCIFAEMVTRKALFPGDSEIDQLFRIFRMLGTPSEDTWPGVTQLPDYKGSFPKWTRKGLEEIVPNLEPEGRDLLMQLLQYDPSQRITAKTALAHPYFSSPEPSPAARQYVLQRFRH
Recorded Conditions: at 0.1 µM
Below is a list of entries, each paired with its recorded inhibition value.
API: value field is a number in %; no unit string.

>>> quantitative_readout("COc1cccc(-n2ncc3c(N/N=C/c4ccc(S(C)(=O)=O)cc4)ncnc32)c1")
4.38
>>> quantitative_readout("NS(=O)(=O)c1ccc(NC=C2C(=O)Nc3ccc4ncsc4c32)cc1")
69.4
>>> quantitative_readout("Nc1nccc(-c2c(-c3ccc(F)cc3)nn3cc(C(F)(F)F)ccc23)n1")
-0.58
>>> quantitative_readout("CN1CCN(C(=O)c2ccc(NC(=O)Nc3ccc(N(C)c4ccnc(Nc5ccc(CS(C)(=O)=O)cc5)n4)cc3)cc2)CC1")
-1.55
>>> quantitative_readout("Cc1nc(-c2ccccc2)n2nc(NCCCN3CCOCC3)ncc12")
-1.66

Q. Provide only the value of recorded inhibition for `Cc1cc(O)cc(C)c1/C=C/c1cncc(C(=O)N(C)C)c1`
A. 1.4

Q. Provide only the value of recorded inhibition for `N#Cc1cccc(Nc2nccc(-c3cnn4ncccc34)n2)c1`
A. 76.7

Q. Provide only the value of recorded inhibition for `CC(C)c1ccc2c(c1)NC(=O)/C2=N/Nc1ccc(S(N)(=O)=O)cc1`
A. 1.54

Q. Provide only the value of recorded inhibition for `CCS(=O)(=O)c1ccc(OC)c(Nc2ncc(-c3cccc(OC)c3)o2)c1`
A. 0.48

Q. Provide only the value of recorded inhibition for `COc1cc2ncnc(Nc3ccc(C)c(O)c3)c2cc1OC`
A. 4.08

* * *

Below is a list of entries, each paired with its recorded inhibition value.
Tgt: Homeodomain-interacting protein kinase 4 (Homo sapiens)
Recorded Conditions: at 1 µM
API: value field is a number in %; no unit string.

Some solved entries appear below for comparison.
>>> quantitative_readout("COc1cc(Nc2nccc(-c3cnn4ncccc34)n2)cc(OC)c1")
76.3
>>> quantitative_readout("ON=C1CCc2cc(-c3nc(C4CCNCC4)[nH]c3-c3ccncc3)ccc21")
2.78
>>> quantitative_readout("c1ccc(Nc2ncc(-c3ccccc3)o2)cc1")
6.31
>>> quantitative_readout("[O-][S+]1CCN(Cc2ccc(-c3ccc4ncnc(Nc5ccc(OCc6ccccc6)c(Cl)c5)c4c3)o2)CC1")
2.27
>>> quantitative_readout("CN(C)c1cc2c(Nc3ccc4c(cnn4Cc4ccccc4)c3)ncnc2cn1")
0.89

Q. Using Homeodomain-interacting protein kinase 4 (Homo sapiens) as the test system, report measured inhibition of `NS(=O)(=O)c1ccc(Nc2cc(-c3cccc(O)c3)n[nH]2)cc1` .
A. 3.33

Q. Using Homeodomain-interacting protein kinase 4 (Homo sapiens) as the test system, report measured inhibition of `COc1cccc(-n2nc(C)c3c(N/N=C(\C)c4ccncc4)ncnc32)c1` .
A. 2.79

Q. Using Homeodomain-interacting protein kinase 4 (Homo sapiens) as the test system, report measured inhibition of `CN(C)C(=O)O[C@@H]1CN[C@@H](C#Cc2cc3ncnc(Nc4ccc(OCc5cccc(F)c5)c(Cl)c4)c3s2)C1` .
A. 0.99

Q. Using Homeodomain-interacting protein kinase 4 (Homo sapiens) as the test system, report measured inhibition of `NS(=O)(=O)c1ccc(-c2cc3ccncc3cc2OCc2ccccc2)cc1` .
A. 6.62

Q. Using Homeodomain-interacting protein kinase 4 (Homo sapiens) as the test system, report measured inhibition of `FC(F)(F)c1ccc(-c2nn3ncccc3c2-c2ccnc(Nc3ccc4c(c3)OCCO4)n2)cc1` .
A. 11.2

Q. Using Homeodomain-interacting protein kinase 4 (Homo sapiens) as the test system, report measured inhibition of `Cc1cc(Cl)cc2c1NC(=O)C2=NNc1ccc(S(N)(=O)=O)cc1` .
A. 2.42

Q. Using Homeodomain-interacting protein kinase 4 (Homo sapiens) as the test system, report measured inhibition of `CCS(=O)(=O)c1ccc(OC)c(Nc2nccc(N(C)c3ccc4c(C)n[nH]c4c3)n2)c1` .
A. 1.15

Q. Using Homeodomain-interacting protein kinase 4 (Homo sapiens) as the test system, report measured inhibition of `NS(=O)(=O)c1cccc(Nc2cc(-c3ccc(F)cc3)n[nH]2)c1` .
A. 6.82

Q. Using Homeodomain-interacting protein kinase 4 (Homo sapiens) as the test system, report measured inhibition of `NC(=O)c1sc(-n2cnc3ccccc32)cc1OCc1ccccc1Br` .
A. 7.54

Q. Using Homeodomain-interacting protein kinase 4 (Homo sapiens) as the test system, report measured inhibition of `Cc1ccc2c(c1)/C(=N/Nc1ccc(S(N)(=O)=O)cc1)C(=O)N2` .
A. -0.65

Q. Using Homeodomain-interacting protein kinase 4 (Homo sapiens) as the test system, report measured inhibition of `COC(=O)c1cncc(/C=C/c2c(C)cc(O)cc2C)c1` .
A. 6.29

Q. Using Homeodomain-interacting protein kinase 4 (Homo sapiens) as the test system, report measured inhibition of `c1ccc(Cc2nc3ccc(Nc4ncnc5ccccc45)cc3[nH]2)cc1` .
A. 9.82

Q. Using Homeodomain-interacting protein kinase 4 (Homo sapiens) as the test system, report measured inhibition of `Cc1ccc2c(-c3ccnc(Nc4ccc5c(c4)OCCO5)n3)c(-c3ccc(C(F)(F)F)cc3)nn2n1` .
A. -0.85

Q. Using Homeodomain-interacting protein kinase 4 (Homo sapiens) as the test system, report measured inhibition of `Cc1ccc(Nc2ccnc(Nc3cccc(C(N)=O)c3)n2)cc1O` .
A. 10.8

Origin of measurements: ChEMBL document CHEMBL1961873
